- System: KM12 colon
- Procedure text: NCI tumour cell line growth inhibition, 48 h
The following molecules are listed with their measured GI50 values.

| Molecule | GI50 |
| --- | --- |
| CN1CCCN(Cc2ccc(C(=O)Nc3cccc(Nc4ccc5c(O)cccc5n4)c3)cc2C(F)(F)F)CC1 | 1.98 µM |
| O=C(c1ccc(OCCN2CCOCC2)cc1)C1[C@H](c2ccc(Cl)cc2)[C@@H](c2ccccc2)NC12C(=O)Nc1ccc(Br)cc12 (some centres undefined) | 2.98 µM |
| OC1CCC(Cn2c(C(F)(F)F)cc3c(Cl)ncnc32)CC1 (centres undefined) | 26.4 µM |
| COc1ccc(-c2nc3ccc(-c4nnc(SCc5ccccc5)o4)cc3[nH]2)cc1 | 11.3 µM |

====

The following compounds are listed with their measured GI50 values.
- Tested on: A498 renal
- Procedure text: NCI tumour cell line growth inhibition, 48 h
Quantity name: GI50

| Compound | Result |
| --- | --- |
| O=C(c1ccc(OCCN2CCOCC2)cc1)C1[C@H](c2ccc(Cl)cc2)[C@@H](c2ccccc2)NC12C(=O)Nc1ccc(Cl)cc12 (some centres undefined) | 8.24 µM |
| OC1CCC(Cn2c(C(F)(F)F)cc3c(Cl)ncnc32)CC1 (centres undefined) | > 100 µM |
| COc1ccc(-c2nc3ccc(-c4nnc(SCc5ccccc5)o4)cc3[nH]2)cc1 | 2.17 µM |
| CNC(=O)c1cccc(N2CCc3c2ccc(NC(=O)Nc2ccc(N4CCN(C)CC4)c(C(F)(F)F)c2)c3F)c1 | 5.36 µM |

====

- Test system: MDA-MB-468 breast
- Procedure text: NCI tumour cell line growth inhibition, 48 h
The following compounds are listed with their measured TGI values.

| Compound | Comparator | TGI (µM) |
| --- | --- | --- |
| C#C[C@]1(O)CCC2C3CCc4cc(O)ccc4C3CC[C@@]21C (stereo partly specified) | = | 6.2 |
| COc1cc(-c2cc(-c3cc4c([nH]c5ccccc54)c(-c4cc(OC)c(OC)c(OC)c4)n3)cc(-c3ccccc3)n2)cc(OC)c1OC | = | 4.61 |
| CNC(=O)c1cccc(N2CCc3c2ccc(NC(=O)Nc2ccc(N4CCN(C)CC4)c(C(F)(F)F)c2)c3F)c1 | = | 11.3 |
| CCCN1C(=O)N(CCC)C2C1NC(=S)N2/N=C/C=C/c1ccccc1OC (stereo unspecified) | = | 17 |
| CCOC(=O)C(Cc1ccc(CCCC(=O)NCCC(=O)Nc2ccc3nc(C)sc3c2)cc1)C(=O)OCC | = | 58.1 |
| Nc1c(C(=O)Nc2ccncc2)sc2nc3c(cc12)CCCCCCCC3 | = | 1.76 |
| COc1ccc2[nH]cc(C3(c4c[nH]c5ccc(OC)cc45)C(=O)Nc4ccc(F)cc43)c2c1 | = | 5.67 |
| Cc1nn(-c2ccc(Cl)cc2)c2nc3c(nc12)C(=O)c1ccccc1-3 | > | 100 |
| Cc1cc2nc3c4cc(Cl)ccc4n(CC(=S)NCCN(C)C)c3nc2cc1C | = | 3.96 |
| O=C(CC1(O)C(=O)N(Cc2ccccc2)c2ccc(F)cc21)c1ccc(C(=O)NCC2CCC3(CC2)OOC2(CCCCC2)OO3)cc1 (stereo unspecified) | = | 3.39 |
| COc1cccc2c1C(=O)c1c(O)c3c(c(O)c1C2=O)C[C@](O)(C(=O)CO)C[C@H]3O[C@@H]1C[C@@H](NC(=O)CCCCCN(C)C2(c3ccc(F)cc3)CC3CCC2C3)[C@H](O)[C@@H](C)O1 (stereo partly specified) | = | 13.5 |

====

- Test system: MDA-MB-231 breast
- Procedure text: NCI tumour cell line growth inhibition, 48 h
The following compounds are listed with their measured GI50 values.
Quantity name: GI50

| Compound | Result |
| --- | --- |
| O=C(c1ccc(OCCN2CCOCC2)cc1)C1[C@H](c2ccc(Cl)cc2)[C@@H](c2ccccc2)NC12C(=O)Nc1ccc(Br)cc12 (some centres undefined) | 2660 nM |
| COc1ccc(-c2nc3ccc(-c4nnc(SCc5ccccc5)o4)cc3[nH]2)cc1 | 2550 nM |
| OC1CCC(Cn2c(C(F)(F)F)cc3c(Cl)ncnc32)CC1 (centres undefined) | 4450 nM |
| CNC(=O)c1cccc(N2CCc3c2ccc(NC(=O)Nc2ccc(N4CCN(C)CC4)c(C(F)(F)F)c2)c3F)c1 | 2930 nM |

====

- Test system: HOP-92 NSCLC
- Procedure text: NCI tumour cell line growth inhibition, 48 h

| Molecule | GI50 |
| --- | --- |
| OC1CCC(Cn2c(C(F)(F)F)cc3c(Cl)ncnc32)CC1 (centres undefined) | 20.6 µM |
| O=C(c1ccc(OCCN2CCOCC2)cc1)C1[C@H](c2ccc(Cl)cc2)[C@@H](c2ccccc2)NC12C(=O)Nc1ccc(Br)cc12 (some centres undefined) | 2.35 µM |
| CNC(=O)c1cccc(N2CCc3c2ccc(NC(=O)Nc2ccc(N4CCN(C)CC4)c(C(F)(F)F)c2)c3F)c1 | 5.36 µM |
| CN1CCCN(Cc2ccc(C(=O)Nc3cccc(Nc4ccc5c(O)cccc5n4)c3)cc2C(F)(F)F)CC1 | 1.64 µM |

====

- Test system: MDA-MB-468 breast
- Procedure text: NCI tumour cell line growth inhibition, 48 h
The following compounds are listed with their measured GI50 values.
Quantity name: GI50

| Compound | Quantity name | Result |
| --- | --- | --- |
| COc1c(OC[C@H](O)CN2CCOCC2)ccc2c3n(c(=NC(=O)c4cccnc4C)nc12)CCN3 | GI50 | 143 nM |
| CS(=O)(=O)CCNCc1nc(-c2ccc3ncnc(Nc4ccc(OCc5cccc(C(F)(F)F)c5)cc4)c3c2)cs1 | GI50 | 1550 nM |
| CCOC(=O)Nc1ccc(-c2nc(-c3cccc(OCCN4CCOCC4)c3)c(-c3ccnc(Br)c3)[nH]2)cc1 | GI50 | 1680 nM |
| Cc1cc2nc3c4cc(Cl)ccc4n(CC(=S)NCCN(C)C)c3nc2cc1C | GI50 | 1950 nM |
| CC(=O)O[C@@H]1C[C@H]2O[C@@H]3C=C(C)CC[C@]3(C)[C@]1(C)[C@]21CO1 | GI50 | 4920 nM |
| CC(C)Oc1ccc2cc(-c3nn(CC4CCNCC4)c4ncnc(N)c34)ccc2c1 | GI50 | 6900 nM |
| O=C(CC1(O)C(=O)N(Cc2ccccc2)c2ccc(F)cc21)c1ccc(C(=O)NCC2CCC3(CC2)OOC2(CCCCC2)OO3)cc1 (stereo not drawn) | GI50 | 1350 nM |
| C=CCCCCOc1ccccc1-c1cnc(OCCCCC=C)n1C | GI50 | 1930 nM |

====

The following compounds are listed with their measured GI50 values.
- System: LOX IMVI melanoma
- Procedure text: NCI tumour cell line growth inhibition, 48 h

| Compound | GI50 |
| --- | --- |
| OC1CCC(Cn2c(C(F)(F)F)cc3c(Cl)ncnc32)CC1 (stereo not given) | 1710 nM |
| O=C(c1ccc(OCCN2CCOCC2)cc1)C1[C@H](c2ccc(Cl)cc2)[C@@H](c2ccccc2)NC12C(=O)Nc1ccc(Br)cc12 (stereo not given in full) | 2430 nM |
| O=C(c1ccc(OCCN2CCOCC2)cc1)C1[C@H](c2ccc(Cl)cc2)[C@@H](c2ccccc2)NC12C(=O)Nc1ccc(Cl)cc12 (stereo not given in full) | 7350 nM |
| COc1ccc(-c2nc3ccc(-c4nnc(SCc5ccccc5)o4)cc3[nH]2)cc1 | 1910 nM |
| CNC(=O)c1cccc(N2CCc3c2ccc(NC(=O)Nc2ccc(N4CCN(C)CC4)c(C(F)(F)F)c2)c3F)c1 | 5150 nM |

====

The following compounds are listed with their measured TGI values.
- System: HOP-92 NSCLC
- Procedure text: NCI tumour cell line growth inhibition, 48 h
Quantity name: TGI

| Compound | Quantity name | Result |
| --- | --- | --- |
| O=C(c1ccc(OCCN2CCOCC2)cc1)C1[C@H](c2ccc(Cl)cc2)[C@@H](c2ccccc2)NC12C(=O)Nc1ccc(Cl)cc12 (some centres undefined) | TGI | 18.7 µM |
| COc1ccc(-c2nc3ccc(-c4nnc(SCc5ccccc5)o4)cc3[nH]2)cc1 | TGI | 24 µM |
| CNC(=O)c1cccc(N2CCc3c2ccc(NC(=O)Nc2ccc(N4CCN(C)CC4)c(C(F)(F)F)c2)c3F)c1 | TGI | 11.6 µM |
| CN1CCCN(Cc2ccc(C(=O)Nc3cccc(Nc4ccc5c(O)cccc5n4)c3)cc2C(F)(F)F)CC1 | TGI | 4.41 µM |
